Consider compounds characterized by their Ki with Neuropeptide Y receptor type 1 (Homo sapiens, UniProt P25929).
Sequence (P25929 whole entry): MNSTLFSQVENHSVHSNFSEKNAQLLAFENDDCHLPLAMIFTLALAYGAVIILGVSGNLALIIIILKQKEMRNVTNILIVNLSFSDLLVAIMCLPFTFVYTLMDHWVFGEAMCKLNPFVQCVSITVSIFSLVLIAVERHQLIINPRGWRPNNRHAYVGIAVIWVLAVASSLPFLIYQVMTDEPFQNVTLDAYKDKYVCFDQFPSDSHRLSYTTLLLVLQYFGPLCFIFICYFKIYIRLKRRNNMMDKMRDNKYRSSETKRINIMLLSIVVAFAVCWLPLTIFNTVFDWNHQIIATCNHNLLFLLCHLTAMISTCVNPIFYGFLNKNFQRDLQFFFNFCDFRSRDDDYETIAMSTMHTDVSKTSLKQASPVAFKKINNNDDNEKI
Answer in nM, number only, no unit symbol.

May I ask what Ki has been recorded for Clc1ccc(OCc2nc3c(OCCC4CCCCN4)cccc3n2CCCC2CCCNC2)cc1 (stereo unspecified) ?
29

May I ask what Ki has been recorded for Clc1ccc(OCc2nc3ccccc3n2CCC2CCNCC2)cc1 ?
940

May I ask what Ki has been recorded for Clc1ccc(OCc2nc3ccccc3n2CCCC2CCCCN2)cc1 (stereo unspecified) ?
3230

May I ask what Ki has been recorded for Clc1ccc(OCc2nc3ccccc3n2CCCC2CCNCC2)cc1 ?
980

May I ask what Ki has been recorded for Clc1ccc(OCc2nc3c(OCCCC4CCCNC4)cccc3n2CCCC2CCCNC2)cc1 (stereo unspecified) ?
30

May I ask what Ki has been recorded for Cc1cccc2c1nc(COc1ccc(Cl)cc1)n2CCCC1CCCNC1 (stereo unspecified) ?
97

May I ask what Ki has been recorded for Clc1ccc(OCc2nc3ccccc3n2CCCCC2CCCNC2)cc1 (stereo unspecified) ?
1210

May I ask what Ki has been recorded for Cc1cccc2nc(COc3ccc(Cl)cc3)n(CCCC3CCCNC3)c12 (stereo unspecified) ?
400

May I ask what Ki has been recorded for Clc1ccc(OCc2nc3c(OCCN4CCCCC4)cccc3n2CCCC2CCCNC2)cc1 (stereo unspecified) ?
43

May I ask what Ki has been recorded for Oc1cccc2c1nc(COc1ccc(Cl)cc1)n2CCCC1CCCNC1 (stereo unspecified) ?
5300

----------
For each of the compounds below, state its pKi.
Molecular target: UniProtKB P25929
Assay: In vitro binding affinity towards human neuropeptide Y receptor type 1, determined by measuring its ability to displace [125]peptide YY
As a rule, pKi stands for the negative log10 of the concentration, concentration in M.

So what pKi did Clc1ccc(OCc2nc3ccccc3n2CCC2CCCNC2)cc1 (centres undefined) get with UniProtKB P25929?
5.89

So what pKi did Clc1ccc(OCc2nc3c(OCCC[C@H]4CCCNC4)cccc3n2CCC[C@H]2CCCNC2)cc1 get with UniProtKB P25929?
7.39

So what pKi did Clc1ccc(OCc2nc3ccccc3n2CCC2CCCCN2)cc1 (centres undefined) get with UniProtKB P25929?
5.10

So what pKi did Clc1ccc(OCc2nc3c(OCCC[C@H]4CCCNC4)cccc3n2CCC[C@@H]2CCCNC2)cc1 get with UniProtKB P25929?
7.57
